Values were extracted from patent US20130184222A1.

Reported IC50 values are given for each entry in this list.
SYSTEM UNDER TEST: IDH1 R132H (Homo sapiens, UniProt O75874, R132H)
Sequence (O75874 whole entry R132H): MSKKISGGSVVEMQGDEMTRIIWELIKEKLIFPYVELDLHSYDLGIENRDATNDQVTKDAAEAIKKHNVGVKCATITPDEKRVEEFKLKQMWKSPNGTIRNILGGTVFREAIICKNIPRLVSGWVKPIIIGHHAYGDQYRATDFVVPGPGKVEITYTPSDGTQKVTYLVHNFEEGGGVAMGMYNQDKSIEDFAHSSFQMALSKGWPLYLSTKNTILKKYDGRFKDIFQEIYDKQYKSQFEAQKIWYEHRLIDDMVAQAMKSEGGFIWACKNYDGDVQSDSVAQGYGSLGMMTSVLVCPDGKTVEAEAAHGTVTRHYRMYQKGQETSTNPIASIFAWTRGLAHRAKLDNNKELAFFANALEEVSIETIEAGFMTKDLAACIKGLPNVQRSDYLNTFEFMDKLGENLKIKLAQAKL
EXPERIMENTAL DETAILS: In vitro assay for IDH1 R132H inhibitors (NADPH/aKG, resazurin detection)
Assay type: biochemical
MEASUREMENT PARAMETERS: Table 4A; 0.2 μg/ml IDH1 R132H, 50 minutes at room temperature; read-out: IC50 (uM), IDH1 R132H Inhibition
QUANTITY: IC50

>>> print(df.to_string())
                                   molecule  recorded_measurement
0  O=C(NC1CCCC1)C(c1ccccc1)N(C(=O)Cc1cccs1)c1cccc(F)c1 (stereo not shown)           0.1 to 1 µM
1  O=C(NC1CCCCC1)C(c1ccc(Br)cc1)N(C(=O)Cc1cccs1)c1cccc(F)c1 (stereo not shown)              ≥ 100 µM
2  O=C(NC1CCCCC1)C(c1ccccc1[N+](=O)[O-])N(C(=O)Cc1cccs1)c1cccc(F)c1 (stereo not shown)           0.1 to 1 µM
3  O=C(NC1CCCCC1)C(c1ccccc1O)N(C(=O)Cc1cccs1)c1cccc(F)c1 (stereo not shown)           0.1 to 1 µM

====

Below is a list of entries, each paired with its recorded IC50 value.
SYSTEM UNDER TEST: IDH1 R132H (Homo sapiens, UniProt O75874, R132H)
EXPERIMENTAL DETAILS: In vitro assay for IDH1 R132H inhibitors (NADPH/aKG, resazurin detection)
Format: biochemical
MEASUREMENT PARAMETERS: Table 4B; 0.2 μg/ml IDH1 R132H, 50 minutes at room temperature; read-out: IC50, IDH1 R132H Inhibition
QUANTITY: IC50

COMPOUND	RECORDED MEASUREMENT
Cc1ccccc1C(C(=O)NC1CCCCC1)N(C(=O)CNCc1nccs1)c1cccc(F)c1 (stereo not drawn) [Compound 257]	0.1 to 1 µM
Cc1ccccc1C(C(=O)NC1CCCCC1)N(C(=O)Cc1cccs1)c1ccc2c(c1)OCCO2 (stereo not drawn) [Compound 149]	0.1 to 1 µM
Cc1ccccc1C(C(=O)NC1CCCCC1)N(Cc1cccs1)C(=O)Cn1cnc2ccccc21 (stereo not drawn) [Compound 167]	0.1 to 1 µM
Cc1ccn(CC(=O)N(c2cccc(F)c2)C(C(=O)NC2CCCCC2)c2ccccc2C)n1 (stereo not drawn) [Compound 298]	0.1 to 1 µM
O=C(NC1CCCCC1)C(c1ccccc1Cl)N(C(=O)c1cc2ccccc2[nH]1)c1cccc(F)c1 (stereo not drawn) [Compound 382]	0.1 to 1 µM
Cc1ccccc1C(C(=O)NC1CCCCC1)N(C(=O)Cn1ccnc1C)c1cccc(-c2cnn(C)c2)c1 (stereo not drawn) [Compound 223]	0.1 to 1 µM
CC(=O)Oc1ccc(C(=O)N(c2cccc(F)c2)C(C(=O)NC2CCCCC2)c2ccccc2C)cc1 (stereo not drawn) [Compound 215]	0.1 to 1 µM
Cc1ccccc1C(C(=O)NC1CCCCC1)N(Cc1cccs1)C(=O)CN(C)c1ccccc1 (stereo not drawn) [Compound 182]	0.1 to 1 µM
CCC(=O)Nc1cccc(N(C(=O)Cc2cccs2)C(C(=O)NC2CCCCC2)c2ccccc2C)c1 (stereo not drawn) [Compound 112]	0.1 to 1 µM
Cc1ccccc1C(C(=O)NC1CCCCC1)N(C(=O)Cn1c(C)nc2ccccc21)c1cccc(F)c1 (stereo not drawn) [Compound 173]	≤ 0.1 µM
Cc1ccccc1C(C(=O)NC1CCCCC1)N(C(=O)CNc1ccccc1F)c1cccc(F)c1 (stereo not drawn) [Compound 242]	0.1 to 1 µM
Cc1ccccc1C(C(=O)NC1CCCCC1)N(C(=O)CSC(=N)N)c1cccc(F)c1 (stereo not drawn) [Compound 163]	0.1 to 1 µM
[2H]C1([2H])C([2H])([2H])C([2H])([2H])C([2H])(NC(=O)C(c2ccccc2C)N(C(=O)COc2ccccn2)c2cccc(F)c2)C([2H])([2H])C1([2H])[2H] (stereo not drawn) [Compound 351]	≤ 0.1 µM
Cc1ccccc1C(C(=O)NC1CC2CC2C1)N(C(=O)Cn1ccnc1C)c1cccc(F)c1 (stereo not drawn) [Compound 327]	0.1 to 1 µM
Cc1ccccc1C(C(=O)NC1CCCCC1)N(C(=O)CNc1ccc(-c2nnn[nH]2)cc1)c1cccc(F)c1 (stereo not drawn) [Compound 285]	0.1 to 1 µM
Cc1ccccc1[C@@H](C(=O)NC1CCCCC1)N(C(=O)[C@H]1CCCN1S(C)(=O)=O)c1cccc(F)c1 [Compound 363]	0.1 to 1 µM
Cc1ccccc1C(C(=O)NC1CCCCC1)N(C(=O)CNCc1ccncc1)c1cccc(F)c1 (stereo not drawn) [Compound 171]	0.1 to 1 µM
Cc1ccccc1C(C(=O)NC1CCCCC1)N(C(=O)CNC1CCCC1)c1cccc(F)c1 (stereo not drawn) [Compound 121]	0.1 to 1 µM
Cc1ccccc1C(C(=O)NC1CCCCC1)N(C(=O)COCc1cccnc1)c1cccc(F)c1 (stereo not drawn) [Compound 233]	0.1 to 1 µM
Cc1ccccc1C(C(=O)NC1CCCCC1)N(C(=O)COCc1cccc(F)c1)c1cccc(F)c1 (stereo not drawn) [Compound 234]	0.1 to 1 µM
Cc1ccccc1C(C(=O)NC1CCCCC1)N(C(=O)Cc1c[nH]c2cccnc12)c1cccc(F)c1 (stereo not drawn) [Compound 275]	≤ 0.1 µM
Cc1ccccc1C(C(=O)NC1CCCCC1)N(C(=O)CNC1CCC1)c1cccc(F)c1 (stereo not drawn) [Compound 120]	0.1 to 1 µM
CCOC(=O)N1CCCC[C@H]1C(=O)N(c1cccc(F)c1)[C@H](C(=O)NC1CCCCC1)c1ccccc1C [Compound 348]	≤ 0.1 µM
Cc1ccccc1C(C(=O)NC1CCCCC1)N(C(=O)COC1CCCC1)c1cccc(F)c1 (stereo not drawn) [Compound 230]	0.1 to 1 µM
Cc1ccccc1C(C(=O)NC1CCC(F)(F)CC1)N(C(=O)CNc1ncccc1F)c1cccc(F)c1 (stereo not drawn) [Compound 342]	0.1 to 1 µM
Cc1ccccc1C(C(=O)NC1CCCCC1)N(C(=O)CNCCc1ccncc1)c1cccc(F)c1 (stereo not drawn) [Compound 184]	0.1 to 1 µM
Cc1ccccc1C(C(=O)NC1CCCCC1)N(C(=O)Cc1ccccn1)c1cccc(F)c1 (stereo not drawn) [Compound 305]	0.1 to 1 µM
COc1cccc(NCC(=O)N(c2cccc(F)c2)C(C(=O)NC2CCCCC2)c2ccccc2C)c1 (stereo not drawn) [Compound 247]	≤ 0.1 µM
Cc1ccccc1C(C(=O)NC1CCCCC1)N(C(=O)CNCc1ccccn1)c1cccc(F)c1 (stereo not drawn) [Compound 172]	0.1 to 1 µM
Cc1ccccc1C(C(=O)NC1CCCCC1)N(Cc1cccs1)C(=O)NCc1ccccc1 (stereo not drawn) [Compound 388]	0.1 to 1 µM
